Target or system UniProt:Q13191; recorded quantity IC50.
Sequence (Q13191 whole entry): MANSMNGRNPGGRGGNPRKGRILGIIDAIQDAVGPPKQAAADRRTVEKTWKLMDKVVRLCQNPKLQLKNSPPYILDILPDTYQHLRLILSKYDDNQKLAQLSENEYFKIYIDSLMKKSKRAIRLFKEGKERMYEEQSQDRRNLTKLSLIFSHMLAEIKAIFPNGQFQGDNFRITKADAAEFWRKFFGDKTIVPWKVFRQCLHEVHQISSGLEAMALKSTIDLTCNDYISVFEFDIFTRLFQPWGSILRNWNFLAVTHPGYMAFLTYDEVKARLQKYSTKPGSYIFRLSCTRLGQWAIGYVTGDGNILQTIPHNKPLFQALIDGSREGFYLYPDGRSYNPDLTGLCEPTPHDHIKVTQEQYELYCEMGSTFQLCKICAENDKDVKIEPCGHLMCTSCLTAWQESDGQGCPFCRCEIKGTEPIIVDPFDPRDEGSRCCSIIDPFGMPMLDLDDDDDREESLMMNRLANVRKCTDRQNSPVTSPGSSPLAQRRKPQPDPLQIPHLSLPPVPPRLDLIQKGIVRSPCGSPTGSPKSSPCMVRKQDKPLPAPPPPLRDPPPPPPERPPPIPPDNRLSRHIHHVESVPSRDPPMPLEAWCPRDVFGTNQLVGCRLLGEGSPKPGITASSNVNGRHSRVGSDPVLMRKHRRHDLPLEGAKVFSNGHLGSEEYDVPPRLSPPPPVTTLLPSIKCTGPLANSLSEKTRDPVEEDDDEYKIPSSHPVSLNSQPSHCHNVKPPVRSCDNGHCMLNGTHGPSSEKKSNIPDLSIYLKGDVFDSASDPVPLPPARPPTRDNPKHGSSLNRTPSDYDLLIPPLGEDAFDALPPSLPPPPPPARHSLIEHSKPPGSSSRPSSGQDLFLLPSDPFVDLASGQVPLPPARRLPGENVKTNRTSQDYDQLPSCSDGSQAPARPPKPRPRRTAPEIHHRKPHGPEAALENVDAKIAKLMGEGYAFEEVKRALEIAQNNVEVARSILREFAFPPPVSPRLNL
Sequence (P22314 2-1058 partner): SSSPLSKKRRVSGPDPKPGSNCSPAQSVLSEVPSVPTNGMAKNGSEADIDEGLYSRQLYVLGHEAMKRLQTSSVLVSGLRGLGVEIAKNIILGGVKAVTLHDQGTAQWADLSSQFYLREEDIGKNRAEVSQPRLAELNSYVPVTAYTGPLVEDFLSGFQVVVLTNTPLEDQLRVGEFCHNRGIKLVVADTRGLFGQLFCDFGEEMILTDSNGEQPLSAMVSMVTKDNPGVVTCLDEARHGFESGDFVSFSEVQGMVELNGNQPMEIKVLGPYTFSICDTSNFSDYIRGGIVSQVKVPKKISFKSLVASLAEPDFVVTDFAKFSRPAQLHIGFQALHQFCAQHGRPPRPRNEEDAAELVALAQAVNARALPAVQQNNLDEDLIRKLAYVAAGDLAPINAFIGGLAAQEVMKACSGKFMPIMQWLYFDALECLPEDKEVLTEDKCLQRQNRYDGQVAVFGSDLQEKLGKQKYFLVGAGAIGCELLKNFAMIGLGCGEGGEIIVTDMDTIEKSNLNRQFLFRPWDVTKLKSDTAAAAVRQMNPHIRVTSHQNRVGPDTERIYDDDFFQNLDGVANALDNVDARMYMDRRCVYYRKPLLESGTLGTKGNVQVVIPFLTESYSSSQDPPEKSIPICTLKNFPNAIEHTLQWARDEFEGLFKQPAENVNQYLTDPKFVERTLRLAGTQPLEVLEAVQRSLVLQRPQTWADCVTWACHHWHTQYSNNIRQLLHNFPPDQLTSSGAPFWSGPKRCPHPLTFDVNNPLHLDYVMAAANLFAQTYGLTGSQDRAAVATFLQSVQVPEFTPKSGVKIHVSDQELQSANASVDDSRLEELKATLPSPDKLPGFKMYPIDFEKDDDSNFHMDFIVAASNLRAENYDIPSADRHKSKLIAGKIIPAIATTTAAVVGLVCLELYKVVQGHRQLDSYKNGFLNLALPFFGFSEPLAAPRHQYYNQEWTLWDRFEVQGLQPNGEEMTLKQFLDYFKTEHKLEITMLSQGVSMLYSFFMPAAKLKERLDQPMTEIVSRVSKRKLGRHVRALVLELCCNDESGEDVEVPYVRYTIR

molecule: O=C(N/C=C/c1ccc(O)cc1)c1c(-c2ccc(O)c(O)c2)c(-c2ccc(O)c(O)c2)c(C(=O)N/C=C/c2ccc(O)cc2)n1CCc1ccc(O)cc1 [compound 2, suberitamide B]
IC50: ~11 µM

Here is another molecule to look at.
Simply: CO[C@@]1(C(=O)N/C=C/c2ccc(O)cc2)O[C@](O)(C(=O)N/C=C/c2ccc(O)cc2)[C@@H](c2ccc(O)c(O)c2)[C@@H]1c1ccc(O)c(O)c1 [compound 1, suberitamide A] , UniProt:Q13191, IC50 = ~11 µM
